All figures here come from patent US20260152557A1.

Please provide measured NCB for the entries that follow.
Target: T1, cynomolgus CD3 on HSC-F cells (cynomolgus, UniProt Q95LI5 22-198)
T1 construct: whole, on cells; also called Cyno HSC-F; cynomolgus HSC-F cells
T1 sequence (Q95LI5 22-198): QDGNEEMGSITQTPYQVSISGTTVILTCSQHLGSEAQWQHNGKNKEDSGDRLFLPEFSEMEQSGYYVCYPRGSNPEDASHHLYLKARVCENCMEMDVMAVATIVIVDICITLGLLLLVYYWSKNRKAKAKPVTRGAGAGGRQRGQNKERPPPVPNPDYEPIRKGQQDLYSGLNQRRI
Assay: flow cytometry, yeast-produced IgG 100 nM on HSC-F cells, pH 6.0
Numbers only.

A selection of reference data follows.
binder | NCB
ADI-74965 (Antibody No. 3), human IgG1 (antibody, V domains shown, Tested as human IgG1 (yeast-produced aglycosylated, or CHO-produced)) VH: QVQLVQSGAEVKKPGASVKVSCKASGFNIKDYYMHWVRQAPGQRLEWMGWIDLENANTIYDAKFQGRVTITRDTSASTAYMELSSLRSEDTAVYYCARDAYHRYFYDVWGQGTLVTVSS VL: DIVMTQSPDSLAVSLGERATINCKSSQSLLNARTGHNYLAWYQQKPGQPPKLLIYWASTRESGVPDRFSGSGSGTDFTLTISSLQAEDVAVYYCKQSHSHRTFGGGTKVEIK | 551
ADI-79847 (Antibody No. 13), human IgG1 (antibody, V domains shown, Tested as yeast-produced aglycosylated human IgG1) VH: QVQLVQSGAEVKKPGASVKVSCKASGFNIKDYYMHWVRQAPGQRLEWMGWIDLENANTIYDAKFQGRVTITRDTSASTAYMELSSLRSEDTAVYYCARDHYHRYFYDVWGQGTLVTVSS VL: DIVMTQSPDSLAVSLGERATINCKSSQSLLNARTGHNYLAWYQQKPGQPPKLLIYWASTRESGVPDRFSGSGSGTDFTLTISSLQAEDVAVYYCKQSHSRRTFGGGTKVEIK | 2
ADI-74968 (Antibody No. 6), human IgG1 (antibody, V domains shown, Tested as human IgG1 (yeast-produced aglycosylated, or CHO-produced)) VH: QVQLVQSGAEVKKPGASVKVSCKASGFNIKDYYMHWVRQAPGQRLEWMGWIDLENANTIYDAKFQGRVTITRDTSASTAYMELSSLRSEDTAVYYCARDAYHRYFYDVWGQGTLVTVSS VL: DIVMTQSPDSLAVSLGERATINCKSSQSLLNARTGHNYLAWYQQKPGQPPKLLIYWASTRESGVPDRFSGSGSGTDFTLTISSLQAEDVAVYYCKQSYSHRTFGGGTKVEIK | 548

Problem: Field request: NCB | item: ADI-79844 (Antibody No. 10), human IgG1 (antibody, V domains shown, Tested as yeast-produced aglycosylated human IgG1) VH: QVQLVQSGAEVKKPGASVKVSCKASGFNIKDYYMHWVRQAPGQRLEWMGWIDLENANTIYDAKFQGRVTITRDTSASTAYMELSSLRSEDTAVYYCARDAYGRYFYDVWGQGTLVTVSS VL: DIVMTQSPDSLAVSLGERATINCKSSQSLLNARTGKNYLAWYQQKPGQPPKLLIYWASTRESGVPDRFSGSGSGTDFTLTISSLQAEDVAVYYCKQSHSRRTFGGGTKVEIK
Solution: 603
